# method-summary: NCI Yeast Anticancer Drug Screen. Data for the CLN2oe strain (AID 163);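 also: 0% = growth of vehicle-only control cultures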
# test-context: S. cerevisiae CLN2oe strain, at 100.0 µM
This is part of a sample that, as a whole, favours compounds with a hit. Of some 79,000 tested, about 15% had one in any assay. Activity calls are given as the source filed them. Rule as the data show it: active = growth inhibition above about 70%; inactive = the rest.
Your answer must be one of the following: True for active, False for inactive

These solved cases illustrate the format of a correct answer.
| compound | classification |
| --- | --- |
| CC[C@]1(O)CC(OC2CC(N(C)C)C(O)C(C)O2)c2c(cc3c(c2O)C(=O)c2c(O)cccc2C3=O)[C@@H]1C(=O)OC (stereo not given in full) | True |
| Cc1cccc(NC(=O)CBr)c1 | True |
| NNc1ccccc1Cl | True |
| C/C(CCl)=N/NC1=NC(c2ccccc2Cl)P(=O)(NCCCNP2(=O)SC(N/N=C(/C)CCl)=NC2c2ccccc2Cl)S1 (stereo not given) | False |
| Nc1nnc(N)n1-n1c(N)nnc1N | False |

Test call for this compound, please: `O=c1oc2ccccc2c(O)c1C(c1ccc2c(c1)Cc1ccccc1-2)c1c(O)c2ccccc2oc1=O` True

Test call for this compound, please: C/C(=N\N=C(N)N)C(CN1CCOCC1)C(c1ccccc1)c1c(O)c2ccccc2oc1=O (stereo not given) False

Test call for this compound, please: CC(Cc1ccccc1)N(C)Cc1nc(C2CCC([N+](=O)[O-])O2)no1 (stereo not given) True

Test call for this compound, please: `Oc1ccc(Cl)cc1Cc1ccccc1` True

Test call for this compound, please: OCC(O)C(O)CO (stereo not given) (tested in a mixture with another compound) False

---

# method-summary: NCI Yeast Anticancer Drug Screen. Data for the mlh1 rad18 strain (AID 175)
# test-context: S. cerevisiae mlh1 rad18 strain growth inhibition; at 50.0 µM; stronger effect = higher value
About 79,000 compounds went through this panel and 15% of them were active in at least one assay; those are over-represented in the sample as a whole. Calls of active or inactive are those of the source. Cut-off read from the data, not from the text of the source: active = growth inhibition above about 70%; inactive = the rest.
# growth inhibition annotations

Recorded results for 5 compounds are shown here.
| compound | growth inhibition |
| --- | --- |
| CCN(CCCl)CCCCNc1c2ccccc2nc2ccc(OC)cc12 | 69.5% (inactive) |
| CCOP(=O)(OCC)Oc1ccc([N+](=O)[O-])cc1 | 3.55% (inactive) |
| CO/C(N)=C(\C#N)N=Cc1cccnc1 | -25.4% (inactive) |
| CSc1ccc(NC(=O)C2c3[nH]c4ccccc4c3C3CCC(C(C)(C)C)CC3C2C(=O)O)cc1 (stereo not given) | 46% (inactive) |
| Cc1ccc2nc3sc(=O)sc3nc2c1 | 96.2% (active) |

Moving on to the next compound.
growth inhibition reported for this compound `O=[N+]([O-])c1cc([N+](=O)[O-])c2cccnc2c1O` : 96.8% (active)

---

# method-summary: NCI Yeast Anticancer Drug Screen. Data for the sgs1 mgt1 strain (AID 161);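 also: 0% = growth of cultures given vehicle only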
# test-context: S. cerevisiae sgs1 mgt1 strain, at 50.0 µM (retest, dose inferred, filed as 5.0), stronger effect = higher value
Compounds without any hit were thinned out: in the full panel of roughly 79,000, 15% have a hit. Calls of active or inactive are those of the source. Cut-off read from the data, not from the text of the source: active = growth inhibition above about 70%; inactive = the rest.
quantity: growth inhibition

| molecule | growth inhibition |
| --- | --- |
| CC[C@@]1(O)C(=O)OCc2c1cc1n(c2=O)Cc2cc3cc4c(cc3nc2-1)OCO4 | 85% (active) |

growth inhibition reported for this molecule `O=P(CCCCP(=O)(c1ccccc1)c1ccccc1)(c1ccccc1)c1ccccc1.[Cl][Sn]([Cl])([c]1ccccc1)[c]1ccccc1` : 98% (active)

growth inhibition reported for this molecule COC(COC(N)=O)C1=C(N2CC2)C(=O)C(C)=C(N2CC2)C1=O (stereo not drawn) : 99% (active)

growth inhibition reported for this molecule `Oc1cccc[c]1[Hg][Cl]` : 99% (active)

growth inhibition reported for this molecule `CCC[CH2][Sn]([N]=C=S)([N]=C=S)[N]=C=S.O=P(c1ccccc1)(c1ccccc1)c1ccccc1.O=P(c1ccccc1)(c1ccccc1)c1ccccc1` : 46% (inactive)

growth inhibition reported for this molecule `O=[C-]CCCCCC[C-]=O.[C-]#[O+].[C-]#[O+].[C-]#[O+].[C-]#[O+].[Fe+6].[Fe+6].[c-]1[c-][c-][cH-][c-]1.[c-]1[c-][c-][cH-][c-]1` : 98% (active)

growth inhibition reported for this molecule `CC(=O)[O-].CC(=O)[O-].O=C(N/N=C/c1cc(Cl)cc(Cl)c1[OH2+])c1ccncc1.[Mn+2]` : 92% (active)

growth inhibition reported for this molecule `S=C1NC2(CCCCC2)NC12CCCCC2` : 69% (inactive)

Data origin: PubChem BioAssay (NCI)
